Biological target: hMC4R (Homo sapiens (Human))
Assay: Transactivation test: melanocortin receptors (pCRE-Luc luciferase reporter), hMC4R
Settings: HEK293 transfected with pCRE-Luc and hMC4R; products tested alone (agonist), 6 h incubation; % activity vs NDP-MSH 10 nM; IA: inactive
Measurement name: pEC50
Conceptually, pEC50 converts a concentration in mol/L into minus its log10.

Recorded results for 2 compounds are shown here.
compound=CCCCC1(c2ccccc2)CN(C(=O)[C@@H](Cc2ccc(OC)cc2)NC(=O)CCc2c[nH]cn2)C1 measurement_name=pEC50 test_value=5.10
compound="CCCCOC1(c2ccccc2C)CN(C(=O)[C@@H](Cc2ccc(OC)cc2)NC(=O)CC(O)c2c[nH]cn2)C1 (some centres unmarked)" measurement_name=pEC50 test_value=5.10

Entry `CCCCCC1(c2ccccc2)CN(C(=O)[C@@H](Cc2ccc(F)cc2)NC(=O)CCc2c[nH]cn2)C1` ; pEC50 = 5.40

Entry `CCCCOC1(c2ccccc2C)CN(C(=O)[C@H](Cc2ccc(OC)cc2)NC(=O)[C@H](Cc2c[nH]cn2)NC(=O)c2ccccc2)C1` ; pEC50 = 5.10

Entry `COc1ccc(C[C@H](NC(=O)CCc2c[nH]cn2)C(=O)N2CC(O)(c3ccccc3C)C2)cc1` ; pEC50 = 5.10

###

Molecular target: hMC4R (Homo sapiens (Human), UniProt P32245)
Sequence (P32245 whole entry): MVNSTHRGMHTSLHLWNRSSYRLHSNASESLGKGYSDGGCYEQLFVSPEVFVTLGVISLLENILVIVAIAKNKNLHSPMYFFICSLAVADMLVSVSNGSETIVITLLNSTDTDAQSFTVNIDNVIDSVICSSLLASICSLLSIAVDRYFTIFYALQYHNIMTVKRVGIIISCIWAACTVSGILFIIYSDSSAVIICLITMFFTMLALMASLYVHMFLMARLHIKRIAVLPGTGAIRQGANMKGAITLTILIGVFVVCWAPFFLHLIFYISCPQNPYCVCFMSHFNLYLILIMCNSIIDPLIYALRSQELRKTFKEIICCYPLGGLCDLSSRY
Test: Transactivation test: melanocortin receptors (pCRE-Luc luciferase reporter), hMC4R
Settings: HEK293 transfected with pCRE-Luc and hMC4R; products tested alone (agonist), 6 h incubation; % activity vs NDP-MSH 10 nM; IA: inactive
Measurement name: pEC50
Conceptually, pEC50 converts a concentration in mol/L into minus its log10.

Recorded results for 4 compounds are shown here.
compound="CCCCOC1(c2ccccc2C)CN(C(=O)[C@H](Cc2ccc(OC)cc2)NC(=O)CCc2c[nH]cn2)C1 [Compound 16]" test_value=4.82
compound="CCCCOC1(c2ccccc2C)CN(C(=O)[C@@H](Cc2ccc(OC)cc2)NC(=O)CCc2c[nH]cn2)C1 [Compound 15]" test_value=5.40
compound="CCCCCC1(c2ccccc2)CN(C(=O)[C@@H](Cc2ccc(Cl)cc2Cl)NC(=O)CCc2c[nH]cn2)C1 [Compound 58]" test_value=6.30
compound="CCCCCC1(c2ccccc2)CN(C(=O)[C@@H](Cc2cccc(C(F)(F)F)c2)NC(=O)CCc2c[nH]cn2)C1 [Compound 50]" test_value=6.30

Short answer on hMC4R (Homo sapiens (Human), UniProt P32245) for CCCCCC1(c2cc(F)ccc2F)CN(C(=O)[C@@H](Cc2ccc(OC)cc2)NC(=O)CCc2c[nH]cn2)C1 [Compound 60] , pEC50: 7.00

Short answer on hMC4R (Homo sapiens (Human), UniProt P32245) for CCCCCC1(c2cccc(F)c2)CN(C(=O)[C@@H](Cc2ccc(OC)cc2)NC(=O)CCc2c[nH]cn2)C1 [Compound 55] , pEC50: 6.00

Short answer on hMC4R (Homo sapiens (Human), UniProt P32245) for CCCCOC1(c2ccccc2C)CN(C(=O)C(Cc2ccc(OC)cc2)NC(=O)CC(CC)c2c[nH]cn2)C1 (centres unmarked) [Compound 63] , pEC50: 6.30

Short answer on hMC4R (Homo sapiens (Human), UniProt P32245) for COc1ccc(C[C@@H](NC(=O)CCc2c[nH]cn2)C(=O)N2CC(OCC3CCCCC3)(c3ccccc3C)C2)cc1 [Compound 77] , pEC50: 5.70

Short answer on hMC4R (Homo sapiens (Human), UniProt P32245) for CCCCCC1(c2ccccc2C)CN(C(=O)[C@@H](Cc2ccc(OC)cc2)NC(=O)CCc2c[nH]cn2)C1 [Compound 37] , pEC50: 5.70

Short answer on hMC4R (Homo sapiens (Human), UniProt P32245) for COc1ccc(C[C@@H](NC(=O)CCc2nc[nH]c2C)C(=O)N2CC(OCC3CCC3)(c3ccccc3C)C2)cc1 [Compound 79] , pEC50: 6.00

Short answer on hMC4R (Homo sapiens (Human), UniProt P32245) for CCCCOC1(c2ccccc2C)CN(C(=O)[C@@H](Cc2ccc(OC)cc2)NC(=O)CCC2N=NC(C)=N2)C1 (some centres unmarked) [Compound 40] , pEC50: 6.30

Short answer on hMC4R (Homo sapiens (Human), UniProt P32245) for CCOC1(c2ccccc2C)CN(C(=O)[C@@H](Cc2ccc(OC)cc2)NC(=O)CCc2c[nH]cn2)C1 [Compound 17] , pEC50: 5.10

Short answer on hMC4R (Homo sapiens (Human), UniProt P32245) for CCCCOC1(c2ccccc2C)CN(C(=O)[C@@H](Cc2ccc(OC)cc2)NC(=O)CCc2c[nH]nn2)C1 [Compound 39] , pEC50: 5.70

Short answer on hMC4R (Homo sapiens (Human), UniProt P32245) for CCCCCC1(c2ccc(F)cc2F)CN(C(=O)[C@@H](Cc2ccc(OC)cc2)NC(=O)CCc2c[nH]cn2)C1 [Compound 49] , pEC50: 5.70
